- system: β1-adrenoreceptor (Homo sapiens)
- Sequence (P08588 whole entry, species assumed): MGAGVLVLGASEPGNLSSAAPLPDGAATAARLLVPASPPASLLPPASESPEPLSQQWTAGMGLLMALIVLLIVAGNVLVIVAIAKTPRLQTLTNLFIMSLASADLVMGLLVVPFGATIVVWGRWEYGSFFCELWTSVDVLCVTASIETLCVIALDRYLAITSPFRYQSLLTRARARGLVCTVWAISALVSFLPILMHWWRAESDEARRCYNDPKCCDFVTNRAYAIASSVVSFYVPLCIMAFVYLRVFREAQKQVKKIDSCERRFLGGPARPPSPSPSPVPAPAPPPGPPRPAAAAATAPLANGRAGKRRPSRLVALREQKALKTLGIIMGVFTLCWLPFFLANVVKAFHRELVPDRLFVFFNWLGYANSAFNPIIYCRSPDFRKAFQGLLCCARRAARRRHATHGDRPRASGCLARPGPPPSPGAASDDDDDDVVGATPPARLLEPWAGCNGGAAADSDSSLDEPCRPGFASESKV
- test: β1-adrenoreceptor binding potency, classical filtration binding assay
metric name: Ki (nM)

Below, 5 compounds whose answers are already recorded.
O=c1ccc2c([C@@H](O)CN[C@@H]3CCc4ccccc43)ccc(O)c2[nH]1 [Example 1]; 186
COCC1(NC[C@H](O)c2ccc(O)c3[nH]c(=O)ccc23)Cc2ccccc2C1 [Example 55]; 384
CCCCc1ccc2c(c1)CCC2NC[C@H](O)c1ccc(O)c2[nH]c(=O)ccc12 (mixture of isomers) [Example 3]; 50
O=c1ccc2c([C@@H](O)CN[C@H]3Cc4ccc(-c5ccco5)cc4C3)ccc(O)c2[nH]1 [Example 139]; 4
CCC1=C(CC)CC2=C(C1)CC(NC[C@H](O)c1ccc(O)c3[nH]c(=O)ccc13)C2 [Example 30]; 132

[1] CC1c2ccccc2CC1NCC(O)c1ccc(O)c2[nH]c(=O)ccc12 (mixture of isomers) [Example 4]
[2] O=c1ccc2c(C(O)CNC3CCCC3C3CCCCC3)ccc(O)c2[nH]1 (mixture of isomers) [Example 33]
Query: Which entry has a larger number for Ki, 1 or 2 ? Reply briefly: the label of your chosen item.
Response: 2
